# study_target: AR protein (Homo sapiens)
# Construct: degradation activity of the compounds disclosed in the present disclosure on AR protein in VCaP cells; host or cells: VCaP
# Sequence (P10275 1-920): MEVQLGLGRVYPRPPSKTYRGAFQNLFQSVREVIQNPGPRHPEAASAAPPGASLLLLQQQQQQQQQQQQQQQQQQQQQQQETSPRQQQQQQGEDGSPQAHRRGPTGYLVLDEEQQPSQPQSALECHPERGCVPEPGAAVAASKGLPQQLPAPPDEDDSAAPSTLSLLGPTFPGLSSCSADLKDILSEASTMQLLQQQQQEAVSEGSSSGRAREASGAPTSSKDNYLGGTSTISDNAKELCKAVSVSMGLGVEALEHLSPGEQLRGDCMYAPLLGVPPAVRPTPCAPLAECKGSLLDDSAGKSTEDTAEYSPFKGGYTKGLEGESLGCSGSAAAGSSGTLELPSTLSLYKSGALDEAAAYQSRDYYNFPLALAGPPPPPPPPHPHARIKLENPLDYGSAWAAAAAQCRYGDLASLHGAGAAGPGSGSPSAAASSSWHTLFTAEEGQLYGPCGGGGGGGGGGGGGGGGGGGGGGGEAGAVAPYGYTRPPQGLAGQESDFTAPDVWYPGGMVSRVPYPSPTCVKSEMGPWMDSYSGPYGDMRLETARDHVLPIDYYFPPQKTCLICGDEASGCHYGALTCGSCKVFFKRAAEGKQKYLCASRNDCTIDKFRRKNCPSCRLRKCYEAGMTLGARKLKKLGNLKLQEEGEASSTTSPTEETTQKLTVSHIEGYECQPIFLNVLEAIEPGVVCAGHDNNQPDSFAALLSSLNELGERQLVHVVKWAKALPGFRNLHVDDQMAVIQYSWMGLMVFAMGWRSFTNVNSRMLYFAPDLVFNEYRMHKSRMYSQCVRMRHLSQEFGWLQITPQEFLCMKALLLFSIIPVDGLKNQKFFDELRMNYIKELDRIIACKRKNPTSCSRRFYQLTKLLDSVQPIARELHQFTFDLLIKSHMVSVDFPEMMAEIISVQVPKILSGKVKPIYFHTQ
# protocol_notes: Degradation of AR protein in VCaP cells (Western blot)
# Format: cell-based
# test_context: compound at 100 nM, 8 hours, read-out: Degradation rate of the AR protein in VCaP cells, 100 nM (%)
Mark f for inhibition at 0.1 µM values under 60%, and t for everything at or above.

{"compound": "N#Cc1ccc(O[C@H]2CC[C@H](NC(=O)c3ccc(N4CCC(CN5CCC6(CC5)COc5cc7c(cc5C6)C(=O)N(C5CCC(=O)NC5=O)C7=O)CC4)nn3)CC2)cc1Cl (stereo partly shown)", "study_target": "AR protein (Homo sapiens)", "answer_label": "t"}
{"compound": "N#Cc1ccc(O[C@H]2CC[C@H](NC(=O)c3ccc(N4CC(N5CCC6(CCc7ccc8c(c7O6)CN(C6CCC(=O)NC6=O)C8=O)CC5)C4)nn3)CC2)cc1Cl (stereo partly shown)", "study_target": "AR protein (Homo sapiens)", "answer_label": "f"}
{"compound": "N#Cc1ccc(O[C@H]2CC[C@H](NC(=O)c3ccc(C#CC4CC5(C4)CC(N4CCC6(CC4)COc4c6ccc6c4CN(C4CCC(=O)NC4=O)C6=O)C5)nn3)CC2)cc1Cl (stereo partly shown)", "study_target": "AR protein (Homo sapiens)", "answer_label": "t"}
{"compound": "N#Cc1ccc(O[C@H]2CC[C@H](NC(=O)c3ccc(N4CCC5(CCC(N6CCC7(CCc8ccc9c(c8O7)CN(C7CCC(=O)NC7=O)C9=O)CC6)CC5)CC4)nn3)CC2)cc1Cl (stereo partly shown)", "study_target": "AR protein (Homo sapiens)", "answer_label": "t"}
{"compound": "N#Cc1ccc(O[C@H]2CC[C@H](NC(=O)c3ccc(N4CC5(CC(N6CCC7(CCc8cc9c(cc8O7)C(=O)N(C7CCC(=O)NC7=O)C9=O)CC6)C5)C4)nn3)CC2)cc1Cl (stereo partly shown)", "study_target": "AR protein (Homo sapiens)", "answer_label": "t"}

Is the recorded value of inhibition at 0.1 µM equal to or greater than 60% for this compound? N#Cc1ccc(O[C@H]2CC[C@H](NC(=O)c3ccc(N4CCN(C(=O)CN5CCC6(CC5)COc5c6ccc6c5CN(C5CCC(=O)NC5=O)C6=O)CC4)nn3)CC2)cc1Cl (stereo partly shown)
t

hey, is inhibition at 0.1 µM for this one >= 60%? COc1cc(O[C@H]2C(C)(C)[C@H](NC(=O)c3ccc(N4CCC(F)(CN5CCC6(CC5)COc5c6ccc6c5CN(C5CCC(=O)NC5=O)C6=O)CC4)cc3)C2(C)C)ccc1C#N (stereo partly shown)
f

Does inhibition at 0.1 µM meet or surpass 60% for CCC1(CN2CCC3(CC2)COc2c3ccc3c2C(=O)N(C2CCC(=O)NC2=O)C3=O)CCN(c2ccc(C(=O)N[C@H]3CC[C@H](Oc4ccc(C#N)c(Cl)c4)CC3)nn2)CC1 (stereo partly shown) ?
f

Is it the case that CCOC1(CN2CCC3(CC2)COc2c3ccc3c2C(=O)N(C2CCC(=O)NC2=O)C3=O)CCN(c2ccc(C(=O)N[C@H]3C(C)(C)[C@H](Oc4ccc(C#N)c(OC)c4)C3(C)C)cc2)CC1 (stereo partly shown) has inhibition at 0.1 µM reaching or exceeding 60%?
f

Determine whether this compound has inhibition at 0.1 µM no lower than 60%: CCOC1(CN2CCC3(CC2)COc2c3ccc3c2CN(C2CCC(=O)NC2=O)C3=O)CCN(c2ccc(C(=O)N[C@H]3CC[C@H](Oc4ccc(C#N)c(Cl)c4)CC3)nn2)CC1 (stereo partly shown)
t

====

# study_target: AR protein (Homo sapiens, UniProt P10275, T878A)
# Construct: degradation activity of the compounds disclosed in the present disclosure on AR protein in LNCaP cells; host or cells: LNCaP FGC
# protocol_notes: Degradation of AR protein in LNCaP cells (Western blot)
# Format: cell-based
# test_context: LNCaP cells, compound 100 nM, 8 hours, Western blot grayscale, GAPDH internal reference; read-out: Degradation rates of the AR protein in LNCaP cells, 100 nM (%)
Recorded inhibition at 0.1 µM by entry
# unit: % | format: bare number

In the examples that follow, each entry is paired with its recorded inhibition at 0.1 µM.
{"molecule": "COc1cc(O[C@H]2C(C)(C)[C@H](NC(=O)c3ccc(N4CCC(CN5CC6(CCc7cc8c(cc7O6)CN(C6CCC(=O)NC6=O)C8=O)C5)CC4)cc3)C2(C)C)ccc1C#N (stereo partly shown)", "inhibition at 0.1 µM (%)": 40}
{"molecule": "COc1cc(O[C@H]2C(C)(C)[C@H](NC(=O)c3ccc(N4CCC(CN5CCC6(CCc7cc8c(cc7O6)CN(C6CCC(=O)NC6=O)C8=O)CC5)CC4)cc3)C2(C)C)ccc1C#N (stereo partly shown)", "inhibition at 0.1 µM (%)": 63}
{"molecule": "N#Cc1ccc(O[C@H]2CC[C@H](NC(=O)c3ccc(N4CC(CN5CCC6(CCc7cc8c(cc7O6)C(=O)N(C6CCC(=O)NC6=O)C8=O)CC5)C4)nn3)CC2)cc1Cl (stereo partly shown)", "inhibition at 0.1 µM (%)": 48}

Fill in the blank: the reported inhibition at 0.1 µM of COc1cc(O[C@H]2C(C)(C)[C@H](NC(=O)c3ccc(N4CCC(F)(CN5CC6(CCc7ccc8c(c7O6)C(=O)N(C6CCC(=O)NC6=O)C8=O)C5)CC4)cc3)C2(C)C)ccc1C#N (stereo partly shown) is ____.
-5

Value lookup for inhibition at 0.1 µM; key = N#Cc1ccc(O[C@H]2CC[C@H](NC(=O)c3ccc(N4CCC5(CC4)CC(N4CCC6(CCc7ccc8c(c7O6)CN(C6CCC(=O)NC6=O)C8=O)CC4)C5)nn3)CC2)cc1Cl (stereo partly shown)
48

Item under review: COc1cc(O[C@H]2C(C)(C)[C@H](NC(=O)c3ccc(N4CCC(F)(CN5CCC6(CC5)COc5cc7c(cc56)C(=O)N(C5CCC(=O)NC5=O)C7=O)CC4)cc3)C2(C)C)ccc1C#N (stereo partly shown) . Reported inhibition at 0.1 µM?
26

State the recorded inhibition at 0.1 µM for this entry: N#Cc1ccc(O[C@H]2CC[C@H](NC(=O)c3ccc(N4CC5(CC(C(=O)N6CCC7(CC6)COc6c7ccc7c6CN(C6CCC(=O)NC6=O)C7=O)C5)C4)nn3)CC2)cc1Cl (stereo partly shown)
36

inhibition at 0.1 µM for N#Cc1ccc(O[C@H]2CC[C@H](NC(=O)c3ccc(N4CC5(CCC(N6CCC7(CC6)COc6cc8c(cc6C7)C(=O)N(C6CCC(=O)NC6=O)C8=O)CC5)C4)nn3)CC2)cc1Cl (stereo partly shown) ?
75

Can you share its inhibition at 0.1 µM? I mean this molecule: N#Cc1ccc(O[C@H]2CC[C@H](NC(=O)c3ccc(N4CCC(O)(CN5CCC6(CC5)COc5c6ccc6c5C(=O)N(C5CCC(=O)NC5=O)C6=O)CC4)nn3)CC2)cc1Cl (stereo partly shown)
67

Need inhibition at 0.1 µM of COc1cc(O[C@H]2C(C)(C)[C@H](NC(=O)c3ccc(N4CCC(CN5CCC6(CCc7ccc8c(c7O6)CN(C6CCC(=O)NC6=O)C8=O)CC5)CC4)cc3)C2(C)C)ccc1C#N (stereo partly shown) , thanks.
55
